B1: RTP4 (parent)
chain: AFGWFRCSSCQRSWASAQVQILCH

Variants of: B1
PROCEDURE TEXT: protein stability index of a GFP-peptide fusion (GPS, HEK-293T) (PSI 1-6); higher = more stable;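 also: lentivirally expressed fusions sorted by FACS into six bins by GFP to DsRed ratio, PSI derived from sequencing read proportions per bin multiplied by bin number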
TEST PARAMETERS: c terminus: a fixed tail appended
READOUT LABEL: protein stability index

Reference set, count: 5
VARIANT DESCRIPTION	READOUT LABEL	RESULT
A1E	protein stability index	1.79
A17D	protein stability index	3.07
H24F	protein stability index	3.12
R12N	protein stability index	1.91
S8H	protein stability index	2.39

Would you be so kind as to report protein stability index for each listed record?
1. V19T
2. S13V
3. S9F
4. S13F
5. Q20T

stdout:
2.79
3.12
2.75
1.54
1.24
